Biological target: NADPH oxidase 5 (Homo sapiens)
Assay: NOX5-dependent H2O2 signal modulators, primary screen, NOX inhibitor project, cell-based, HEK293-NOX5, Amplex Red fluorescence (AID 1161)
Settings: HEK293-NOX5, ionomycin, 45 min, higher = more signal
I'd be grateful if you could share measured z-score for these entries.
Just the number.

// sample `NC(=O)NCC#Cc1ccc2c(c1)[C@]1(C(=O)N2)[C@H](c2ccc(O)cc2)N2[C@H](c3ccccc3)[C@H](c3ccccc3)OC(=O)[C@H]2[C@@H]1C(=O)O` , its z-score was -0.305

// sample `C=C(COC)/C(=C/C[C@H](OC(C)=O)c1ccc(CO)o1)c1cc(C(=O)OC)ccc1OC` , its z-score was -1.14

// sample `C=CCNC(=O)[C@@H]1[C@H]2C(=O)O[C@H](c3ccccc3)[C@H](c3ccccc3)N2[C@H](c2ccc(OCCO)cc2)[C@@]12C(=O)Nc1ccc(C#CCC(C(=O)OC)C(=O)OC)cc12` , its z-score was 0.236

// sample `COc1ccc([C@H]2OC[C@@H]3C[C@@H](Cc4ccccc4)C(=O)N32)cc1` , its z-score was -0.604

----------
Biological target: Homeobox protein Hox-A13 (Mus musculus) (UniProt Q62424)
Sequence (Q62424 whole entry, looked up): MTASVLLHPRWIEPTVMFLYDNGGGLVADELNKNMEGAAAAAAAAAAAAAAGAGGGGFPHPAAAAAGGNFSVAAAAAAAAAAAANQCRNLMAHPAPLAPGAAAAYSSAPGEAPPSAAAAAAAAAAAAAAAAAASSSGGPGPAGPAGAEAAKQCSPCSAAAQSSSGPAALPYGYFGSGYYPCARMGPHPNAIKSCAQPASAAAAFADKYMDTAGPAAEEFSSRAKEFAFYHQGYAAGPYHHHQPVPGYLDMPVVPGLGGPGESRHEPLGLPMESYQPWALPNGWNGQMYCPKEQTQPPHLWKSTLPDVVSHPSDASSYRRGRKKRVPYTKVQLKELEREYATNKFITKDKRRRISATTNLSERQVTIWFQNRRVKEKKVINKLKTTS
Assay: inhibitors of HoxA13-DNA binding, primary screen, biochemical, fluorescence polarization, labeled oligonucleotide (AID 1185)
Conditions: 15 min, higher = more signal, called active from +8 up or from −8 down
experimental readout: z-score
Just the number.

Tested on Homeobox protein Hox-A13 (Mus musculus) (UniProt Q62424), the item `CO[C@H]1O[C@H](CO)[C@@H](OC(=O)Nc2cccc(F)c2)[C@H](OC(=O)Nc2ccccc2)[C@@H]1OC(=O)Nc1ccccc1` showed z-score equal to -6.57

Tested on Homeobox protein Hox-A13 (Mus musculus) (UniProt Q62424), the item COc1cc2c(cc1O)C(C1CC1)N(Cc1sc3ccccc3c1Cl)CC2 (centres undefined) showed z-score equal to -2.44

Tested on Homeobox protein Hox-A13 (Mus musculus) (UniProt Q62424), the item Cc1ccccc1C(O)C1C=CC2C(=O)N(c3ccccc3)C(=O)C2N1Nc1ccc(C(C)C)cc1 (centres undefined) showed z-score equal to -1.77

Tested on Homeobox protein Hox-A13 (Mus musculus) (UniProt Q62424), the item `C#C[C@H](O[Si](C#Cc1ccc(Oc2ccccc2)cc1)(C(C)C)C(C)C)c1ccccc1` showed z-score equal to -1.04

Tested on Homeobox protein Hox-A13 (Mus musculus) (UniProt Q62424), the item COc1ccc(C(O)C2C=CC3C(=O)N(Cc4ccccc4)C(=O)C3N2n2cnnc2)cc1OCc1ccccc1 (centres undefined) showed z-score equal to -2.23

Tested on Homeobox protein Hox-A13 (Mus musculus) (UniProt Q62424), the item `COc1ccc(/C=C/C=O)cc1` showed z-score equal to 0.0055

Tested on Homeobox protein Hox-A13 (Mus musculus) (UniProt Q62424), the item `COc1ccc([Si](C)(C)[C@H]2[C@H](CC(=O)N3Cc4ccccc4C[C@H]3CO)O[C@@]3(C(=O)N(Cc4cccc(N5CCC5=O)c4)c4ccccc43)[C@@H]2C)cc1` showed z-score equal to -2.97

Tested on Homeobox protein Hox-A13 (Mus musculus) (UniProt Q62424), the item `C=C(CC1([C@@H](NP(=O)(c2ccccc2)c2ccccc2)[C@H]2C[C@@H]2CCCC)CC1)c1ccccc1` showed z-score equal to -2.33

Tested on Homeobox protein Hox-A13 (Mus musculus) (UniProt Q62424), the item `COC(=O)C[C@H]1O[C@]2(C(=O)N(C)c3ccccc32)[C@@H](C)[C@@H]1[Si](C)(C)F` showed z-score equal to -1.19

Tested on Homeobox protein Hox-A13 (Mus musculus) (UniProt Q62424), the item `CCCC[C@@H]1C[C@H]1[C@@H](NC(=O)C(C)(C)C)c1ccc(C(F)(F)F)cc1` showed z-score equal to 1.43

Tested on Homeobox protein Hox-A13 (Mus musculus) (UniProt Q62424), the item `C=CCNC(=O)[C@@H]1[C@H]2C(=O)O[C@H](c3ccccc3)[C@H](c3ccccc3)N2[C@H](c2ccc(O)cc2)[C@@]12C(=O)N(C(=O)OCCOC)c1ccc(C#CCNC(N)=O)cc12` showed z-score equal to -2.11

Tested on Homeobox protein Hox-A13 (Mus musculus) (UniProt Q62424), the item `COC(=O)C(CC#Cc1ccc2c(c1)[C@]1(C(=O)N2)[C@H](C(=O)Nc2nc3ccccc3s2)[C@H]2C(=O)O[C@H](c3ccccc3)[C@H](c3ccccc3)N2[C@@H]1c1ccccc1OCCO)C(=O)OC` showed z-score equal to 2.38

Tested on Homeobox protein Hox-A13 (Mus musculus) (UniProt Q62424), the item `C=CCN1C(=O)[C@]2(O[C@H](CCn3cc([C@H](O)c4ccccc4)nn3)[C@@H]([Si](C)(C)c3ccc(OC)cc3)[C@@H]2C)c2cc(N3CCC3=O)ccc21` showed z-score equal to -5.76

Tested on Homeobox protein Hox-A13 (Mus musculus) (UniProt Q62424), the item `COCCOC(=O)N1C(=O)[C@@]2(c3ccccc31)[C@H](c1ccccc1OCCO)N1[C@H](c3ccccc3)[C@H](c3ccccc3)OC(=O)[C@H]1[C@@H]2C(=O)N1CCN(c2ncccn2)CC1` showed z-score equal to -1.99

Tested on Homeobox protein Hox-A13 (Mus musculus) (UniProt Q62424), the item `CCCC[C@@H]1C[C@H]1[C@@H](NC(=O)c1ccccc1)c1ccc(C(=O)OC)cc1` showed z-score equal to -3.64

Tested on Homeobox protein Hox-A13 (Mus musculus) (UniProt Q62424), the item C=CCC(OC(C)=O)[C@@H]1[C@@H](N(Cc2ccc(-c3cccc(C(F)(F)F)c3)o2)C(=O)c2ccc(C)cc2)c2cc(OCCCO)ccc2N1C(=O)Cc1ccc2ccccc2c1 (some centres undefined) showed z-score equal to -0.62

Tested on Homeobox protein Hox-A13 (Mus musculus) (UniProt Q62424), the item O[C@@H](Cc1ccccc1)[C@H]1C2C=CCCC=C2CN1Cc1cccc(Cl)c1 (some centres undefined) showed z-score equal to -7.63

Tested on Homeobox protein Hox-A13 (Mus musculus) (UniProt Q62424), the item `COc1ccc([Si](C)(C)[C@@H]2[C@@H](CCO)O[C@]3(C(=O)N(Cc4ccc(N(C=O)c5ccccc5)cc4)c4ccccc43)[C@H]2C)cc1` showed z-score equal to -1.54

Tested on Homeobox protein Hox-A13 (Mus musculus) (UniProt Q62424), the item `O=C1C[C@@](C(=O)NCCN2CCOCC2)(c2ccc([N+](=O)[O-])cc2)[C@@H](c2ccc(CO)cc2)N1CC12CC3CC(CC(C3)C1)C2` showed z-score equal to -4.58

Tested on Homeobox protein Hox-A13 (Mus musculus) (UniProt Q62424), the item `CC(C)C[C@@H]1NC(=O)[C@@H]2C[C@H](C(=O)NCc3ccc(F)cc3)[C@H](c3cccc(OCCO)c3)N2C1=O` showed z-score equal to -3.95

Tested on Homeobox protein Hox-A13 (Mus musculus) (UniProt Q62424), the item `CC(C)C(=C=CC[C@@H](O)c1ccc(OCCO)cc1)C[C@@H](O)c1ccccn1` showed z-score equal to -5.14

Tested on Homeobox protein Hox-A13 (Mus musculus) (UniProt Q62424), the item `CCOC(=O)C[C@H]1[C@H](OC(=O)c2cc3ccccc3oc2=O)[C@@H](NC(=O)c2ccccc2)c2cc(OCCCO)ccc2N1C(=O)c1ccc2ccccc2n1` showed z-score equal to -3.63

Tested on Homeobox protein Hox-A13 (Mus musculus) (UniProt Q62424), the item CC(C)C[C@@H]1NC(=O)[C@H](C(C)C)NC(=O)[C@@]23C(=O)N[C@@H](Cc4ccccc4)C2[C@H](C)[C@@]2(C)O[C@H]2C3/C=C/CC/C=C/CNC1=O (some centres undefined) showed z-score equal to -6.99

Tested on Homeobox protein Hox-A13 (Mus musculus) (UniProt Q62424), the item `C=C(COC)C(=O)CC[C@@H](OC(C)=O)c1ccc(CO)o1` showed z-score equal to -3.72

Tested on Homeobox protein Hox-A13 (Mus musculus) (UniProt Q62424), the item `C=CCNC(=O)[C@H]1[C@@H]2C(=O)O[C@@H](c3ccccc3)[C@@H](c3ccccc3)N2[C@@H](c2ccccc2OCCO)[C@]12C(=O)Nc1ccc(C#CCCO)cc12` showed z-score equal to -3.91

Tested on Homeobox protein Hox-A13 (Mus musculus) (UniProt Q62424), the item `Oc1ccc2cc[n+](Cc3sc4ccccc4c3Cl)cc2c1` showed z-score equal to -4.76

Tested on Homeobox protein Hox-A13 (Mus musculus) (UniProt Q62424), the item `COc1ccc(C#Cc2ccc3c(c2)[C@]2(C(=O)N3)[C@H](C(=O)NC[C@H](O)c3ccccc3)[C@H]3C(=O)O[C@H](c4ccccc4)[C@H](c4ccccc4)N3[C@@H]2c2ccc(O)cc2)cc1` showed z-score equal to -0.752

Tested on Homeobox protein Hox-A13 (Mus musculus) (UniProt Q62424), the item `COCCCNC(=O)[C@@]1(C)c2ccccc2C(=O)N(C(C)C)[C@H]1c1ccc(CO)cc1` showed z-score equal to -1.71

Tested on Homeobox protein Hox-A13 (Mus musculus) (UniProt Q62424), the item `C=C(C(=O)CC[C@@H](OC(=O)c1cccnc1)c1ccccc1OCCO)C(C)C` showed z-score equal to -3.56
